Provide the reported composite z-score of each item.
System: Sam68 (KHDRBS1)
Assay: Sam68 small-molecule binders, primary screen, biochemical, small-molecule microarray, 635 nm fluorescence (AID 1125);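 also: score merges 667 nm channel intensity with signal to noise over triplicate slides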
Conditions: small-molecule microarray binding, higher = more signal
Respond numerically, and do not add a unit to the figure.

Which composite z-score value belongs to C=CCC(OC(C)=O)[C@@H]1[C@@H](N(Cc2cccc3ccccc23)C(=O)c2ccc(C)cc2)c2cc(OCCCO)ccc2N1C(=O)c1ccc(-c2ccccc2)cc1 (stereo partly drawn) ?
-0.087

Item under review: CO[C@H]1COC(=O)[C@H](Cc2ccccc2)NC(=O)CC=C[C@@H](C)[C@H](OC)COC(=O)CC=C[C@@H]1C . Reported composite z-score?
0.588

Endpoint output: composite z-score of COc1cccc([C@@H]2[C@@H](C)CC[C@H]3C(=O)N(C)[C@@H](C(C)C)C(=O)N23)c1 . Value?
0.346

Every entry's value here was drawn from PubChem BioAssay.
